Endpoint: pIC50. System: Somatostatin receptor type 1 (Homo sapiens). Items follow.
Sequence (P30872 whole entry): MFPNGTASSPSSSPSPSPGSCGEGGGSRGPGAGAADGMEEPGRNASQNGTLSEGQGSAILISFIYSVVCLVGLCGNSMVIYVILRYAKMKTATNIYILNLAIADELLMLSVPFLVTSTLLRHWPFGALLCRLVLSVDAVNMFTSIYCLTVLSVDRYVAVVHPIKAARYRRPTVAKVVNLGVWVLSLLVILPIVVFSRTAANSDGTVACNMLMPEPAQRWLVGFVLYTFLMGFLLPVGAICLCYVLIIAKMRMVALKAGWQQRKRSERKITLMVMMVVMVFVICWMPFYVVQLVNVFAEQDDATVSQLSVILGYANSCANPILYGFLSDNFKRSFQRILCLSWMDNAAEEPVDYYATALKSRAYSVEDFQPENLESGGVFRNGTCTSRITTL
pIC50: −log10 of the molar value.

{"columns": ["Structure", "Target of assay", "pIC50"],
 "data": [
  ["C[C@@H](O)[C@@H]1NC(=O)[C@H](CCCCN)NC(=O)[C@@H]([C@@H](C)c2ccc3ccccc3c2)NC(=O)[C@H](Cc2ccc(O)cc2)NC(=O)[C@H](Cc2ccccc2)NC(=O)[C@@H](N)CSSC[C@@H](C(=O)O)NC(=O)[C@H](Cc2ccccc2)NC1=O", "Somatostatin receptor type 1 (Homo sapiens)", "< 6.00"]
]}

We now examine a further compound.
Give pIC50 for `C[C@@H](O)[C@@H]1NC(=O)[C@H](CCCCN)NC(=O)[C@@H]([C@@H](C)c2ccc3ccccc3c2)NC(=O)[C@H](Cc2ccc(N)cc2)NC(=O)[C@H](Cc2ccccc2)NC(=O)[C@H](NC(=O)[C@@H](N)Cc2ccc(O)cc2)CSSC[C@@H](C(=O)O)NC(=O)[C@H](Cc2ccccc2)NC1=O`
< 6.00

====

target: Somatostatin receptor type 4 (Homo sapiens, UniProt P31391)
Sequence (P31391 whole entry): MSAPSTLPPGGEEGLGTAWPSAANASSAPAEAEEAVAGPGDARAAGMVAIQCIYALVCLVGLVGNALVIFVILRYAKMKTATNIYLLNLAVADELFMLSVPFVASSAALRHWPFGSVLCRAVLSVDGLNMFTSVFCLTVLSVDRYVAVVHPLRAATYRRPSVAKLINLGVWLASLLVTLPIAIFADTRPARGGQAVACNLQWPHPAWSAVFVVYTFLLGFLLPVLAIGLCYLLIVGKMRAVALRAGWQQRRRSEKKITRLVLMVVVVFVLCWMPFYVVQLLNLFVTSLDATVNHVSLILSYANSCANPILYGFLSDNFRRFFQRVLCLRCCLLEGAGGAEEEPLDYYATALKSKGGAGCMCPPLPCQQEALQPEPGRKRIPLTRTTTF
pIC50: −log10 of the molar value.
Observation type: pIC50

Consider the worked cases shown below.
{"columns": ["Structure", "pIC50"],
 "data": [
  ["C[C@@H](O)[C@H]1NC(=O)[C@H](CCCCN)NC(=O)[C@@H]([C@@H](C)c2ccc3ccccc3c2)NC(=O)[C@H](Cc2ccc(N)cc2)NC(=O)[C@@H](Cc2ccccc2)NC(=O)[C@H](N)CSSC[C@@H](C(=O)O)NC(=O)[C@H](Cc2ccccc2)NC1=O", 8.16],
  ["C[C@@H](O)[C@@H]1NC(=O)[C@H](CCCCN)NC(=O)[C@@H]([C@@H](C)c2ccc3ccccc3c2)NC(=O)[C@H](Cc2ccc(O)cc2)NC(=O)[C@H](Cc2ccccc2)NC(=O)[C@H](N)CSSC[C@@H](C(=O)O)NC(=O)[C@H](Cc2ccccc2)NC1=O", 9.28],
  ["C[C@H](c1ccc2ccccc2c1)[C@@H]1NC(=O)[C@H](Cc2ccc(N)cc2)NC(=O)[C@H](Cc2ccccc2)NC(=O)[C@H](NC(=O)[C@@H](N)Cc2ccc(O)cc2)CSSC[C@@H](C(=O)O)NC(=O)[C@H](Cc2ccccc2)NC(=O)[C@H]([C@@H](C)O)NC(=O)[C@H](CCCCN)NC1=O", 7.21]
]}

A. C[C@@H](O)[C@@H]1NC(=O)[C@H](CCCCN)NC(=O)[C@@H]([C@@H](C)c2ccc3ccccc3c2)NC(=O)[C@H](Cc2ccc(O)cc2)NC(=O)[C@H](Cc2ccccc2)NC(=O)[C@@H](N)CSSC[C@@H](C(=O)O)NC(=O)[C@H](Cc2ccccc2)NC1=O
B. C[C@H](c1ccc2ccccc2c1)[C@@H]1NC(=O)[C@H](Cc2ccc(O)cc2)NC(=O)[C@H](Cc2ccccc2)NC(=O)[C@@H](N)CSSC[C@@H](C(=O)O)NC(=O)[C@H](Cc2ccccc2)NC(=O)[C@H]([C@@H](C)O)NC(=O)[C@H](CCCCN)NC1=O
// pick larger pIC50 from pair: A vs B // return label of chosen record
B

====

Assay read-out IC50; system under study: Somatostatin receptor type 2 (Homo sapiens, UniProt P30874).
Sequence (P30874 whole entry): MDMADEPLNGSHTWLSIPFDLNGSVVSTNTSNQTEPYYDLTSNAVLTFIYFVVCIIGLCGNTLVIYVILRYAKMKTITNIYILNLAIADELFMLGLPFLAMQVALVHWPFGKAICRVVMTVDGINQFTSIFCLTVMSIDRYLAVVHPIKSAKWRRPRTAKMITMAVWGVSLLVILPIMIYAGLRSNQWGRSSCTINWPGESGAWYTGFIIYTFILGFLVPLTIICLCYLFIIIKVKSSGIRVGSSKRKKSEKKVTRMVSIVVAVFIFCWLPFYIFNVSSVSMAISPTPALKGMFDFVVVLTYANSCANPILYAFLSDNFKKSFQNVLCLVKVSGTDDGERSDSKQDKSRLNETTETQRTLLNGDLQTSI
Observation type: IC50 (nM)

{"columns": ["Structure", "IC50, nM"],
 "data": [
  ["C[C@H](c1ccc2ccccc2c1)[C@@H]1NC(=O)[C@H](Cc2ccccc2)NC(=O)[C@@H](Cc2ccccc2)NC(=O)[C@H](N)CSSC[C@@H](C(=O)O)NC(=O)[C@H](Cc2ccc(O)cc2)NC(=O)[C@@H]([C@@H](C)O)NC(=O)[C@H](CCCCN)NC1=O", 16]
]}

A. C[C@@H](O)[C@H]1NC(=O)[C@H](CCCCN)NC(=O)[C@@H]([C@@H](C)c2ccc3ccccc3c2)NC(=O)[C@H](Cc2ccccc2)NC(=O)[C@@H](Cc2ccccc2)NC(=O)[C@H](N)CSSC[C@@H](C(=O)O)NC(=O)[C@H](Cc2ccc(O)cc2)NC1=O
B. C[C@@H](O)[C@@H]1NC(=O)[C@H](CCCCN)NC(=O)[C@H]([C@@H](C)c2ccc3ccccc3c2)NC(=O)[C@H](Cc2ccc(O)cc2)NC(=O)[C@H](Cc2ccccc2)NC(=O)[C@@H](N)CSSC[C@@H](C(=O)O)NC(=O)[C@H](Cc2ccccc2)NC1=O
C. C[C@@H](O)[C@H]1NC(=O)[C@H](CCCCN)NC(=O)[C@@H]([C@@H](C)c2ccc3ccccc3c2)NC(=O)[C@H](Cc2ccc(N)cc2)NC(=O)[C@@H](Cc2ccccc2)NC(=O)[C@H](N)CSSC[C@@H](C(=O)O)NC(=O)[C@H](Cc2ccccc2)NC1=O
Please give the order of these compounds when sorted by IC50, largest value leading. Reply: labels, ordered per the request.
C, A, B

Every entry's value here was drawn from ChEMBL document CHEMBL1145934.
